Origin of the recorded values: patent US20260001914A1

- Assay system: KRAS-G12D protein (Homo sapiens, UniProt P01116, G12D)
- Sequence (P01116 1-188 isoform P01116-2 G12D): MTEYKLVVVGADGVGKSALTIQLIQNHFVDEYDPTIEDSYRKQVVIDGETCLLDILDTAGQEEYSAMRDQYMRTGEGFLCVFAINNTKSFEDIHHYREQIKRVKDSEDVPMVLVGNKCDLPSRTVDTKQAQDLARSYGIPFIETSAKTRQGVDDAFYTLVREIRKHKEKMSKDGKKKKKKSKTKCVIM
- Test summary: SOS-mediated nucleotide exchange assay (BODIPY-GDP / Tb-streptavidin TR-FRET)
- Assay type: biochemical
*1 amine or outer side, *2 acyl side, *3 side chain or, on linkers, in order; H or OH if unused. Where a SMILES comes first, the peptide text is derived from it. Bridges are numbered along the chain shown (N, C = ends). [ ]: non-standard residue; d: D form. The star is where a group is joined. Ala(pyrimidin-5-yl) = N[C@@H](Cc1cncnc1)C(=O)O; X8 = CN([C@@H](Cc1ccc(F)nc1)C(=O)[*:2])[*:1]; X13 = O=C([C@H](Cc1ccncc1F)N[*:1])[*:2]; Phe(2-F) = N[C@@H](Cc1ccccc1F)C(=O)O; X1 = O=C(C12CC(CN[*:1])(C1)C2)[*:2]; Ala(cPr) = N[C@@H](CC1CC1)C(=O)O; NMeF = CN[C@@H](Cc1ccccc1)C(=O)O; PhLac = O=C(O)[C@@H](O)Cc1ccccc1; 3Pal = N[C@@H](Cc1cccnc1)C(=O)O; Ahp(2) = CCCCC[C@H](N)C(=O)O; Cba = N[C@@H](CC1CCC1)C(=O)O; hLeu = CC(C)CC[C@H](N)C(=O)O; αMeC = C[C@](N)(CS)C(=O)O; NMeA = CN[C@@H](C)C(=O)O; Pyrrolidide = C1CCN(*)C1
Labelling field: enter 1.0 if recorded EC50 is less than 5 nM. Enter 0.0 if it equals or exceeds that cut-off.

>  <Compound>
CC(C)CC[C@@H]1NC(=O)[C@H](Cc2ccccc2F)NC(=O)[C@H](CC2CC2)NC(=O)[C@H](Cc2cncnc2)NC(=O)[C@H](C)N(C)C(=O)[C@H](Cc2ccccc2)OC(=O)C23CC(CNC(=O)[C@H](Cc4ccc(F)nc4)N(C)C1=O)(C2)C3 [compound 339] (cyclo([Ala(cPr)][Phe(2-F)][hLeu][X8][X1][PhLac][NMeA][Ala(pyrimidin-5-yl)]))

>  <Assay system>
KRAS-G12D protein (Homo sapiens, UniProt P01116, G12D)

>  <Assigned label>
1.0

$$$$
>  <Compound>
CC(C)CC[C@@H]1NC(=O)[C@H](Cc2ccncc2F)NC(=O)[C@H](CC2CC2)NC(=O)[C@H](Cc2cncnc2)NC(=O)[C@H](C)N(C)C(=O)[C@H](Cc2ccccc2)OC(=O)C23CC(CNC(=O)[C@H](Cc4ccccc4)N(C)C1=O)(C2)C3 [compound 214] (cyclo([Ala(cPr)][X13][hLeu][NMeF][X1][PhLac][NMeA][Ala(pyrimidin-5-yl)]))

>  <Assay system>
KRAS-G12D protein (Homo sapiens, UniProt P01116, G12D)

>  <Assigned label>
1.0

$$$$
>  <Compound>
COc1ccc(C[C@@H]2NC(=O)[C@H](CC3CCC3)NC(=O)[C@H](Cc3cccnc3)NC(=O)[C@H](CCCNC(=N)N)NC(=O)[C@H](Cc3ccccc3)NC(=O)CSC[C@](C)(C(N)=O)NC(=O)[C@@H]3CCCCCCCC[C@H](NC2=O)C(=O)N3C)cc1 (single isomer, unassigned) [SEQ ID NO: 191]

>  <Assay system>
KRAS-G12D protein (Homo sapiens, UniProt P01116, G12D)

>  <Assigned label>
0.0

$$$$
>  <Compound>
CCCC[C@@H]1NC(=O)[C@H](Cc2ccc(C(F)(F)F)nc2)NC(=O)[C@H](CCCn2ccnc2)N(C)C(=O)[C@H](Cc2ccccc2)OC(=O)C23CC(CNC(=O)[C@H](Cc4ccccc4)N(C)C(=O)[C@H](CCCC)NC(=O)[C@H](Cc4ccccc4F)NC1=O)(C2)C3 (single isomer, unassigned) [compound 219]

>  <Assay system>
KRAS-G12D protein (Homo sapiens, UniProt P01116, G12D)

>  <Assigned label>
0.0

$$$$
>  <Compound>
CCCCC[C@@H]1NC(=O)[C@H](CC(=O)N2CCCC2)NC(=O)[C@H](CC2CCC2)NC(=O)[C@H](Cc2cccnc2)NC(=O)[C@H](CCCNC(=N)N)NC(=O)[C@H](Cc2ccccc2)NC(=O)CSC[C@@](C)(C(N)=O)NC(=O)[C@H](Cc2ccccc2)N(C)C1=O [compound 373] ({CH2CO}-FR[3Pal][Cba]D(Pyrrolidide)[Ahp(2)][NMeF][αMeC]-NH2; thioether N-8)

>  <Assay system>
KRAS-G12D protein (Homo sapiens, UniProt P01116, G12D)

>  <Assigned label>
0.0

$$$$
